subject.of.test: factor B (Homo sapiens, UniProt P00751)
Sequence (P00751 260-764 limits assumed): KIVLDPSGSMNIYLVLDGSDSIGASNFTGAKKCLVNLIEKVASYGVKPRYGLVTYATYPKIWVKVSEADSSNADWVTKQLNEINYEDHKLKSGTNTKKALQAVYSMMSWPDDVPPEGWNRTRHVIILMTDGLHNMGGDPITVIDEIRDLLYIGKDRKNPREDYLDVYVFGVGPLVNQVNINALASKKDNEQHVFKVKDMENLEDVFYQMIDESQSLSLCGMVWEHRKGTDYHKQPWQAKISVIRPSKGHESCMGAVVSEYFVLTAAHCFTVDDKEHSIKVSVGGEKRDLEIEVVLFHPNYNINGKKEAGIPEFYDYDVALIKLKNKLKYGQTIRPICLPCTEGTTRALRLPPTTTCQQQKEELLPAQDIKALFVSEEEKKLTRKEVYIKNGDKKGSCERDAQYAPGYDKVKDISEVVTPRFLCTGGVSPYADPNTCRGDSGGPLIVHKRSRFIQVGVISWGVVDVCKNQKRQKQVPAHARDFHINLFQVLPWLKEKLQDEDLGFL
Sequence (Q91132 23-649 partner limits assumed): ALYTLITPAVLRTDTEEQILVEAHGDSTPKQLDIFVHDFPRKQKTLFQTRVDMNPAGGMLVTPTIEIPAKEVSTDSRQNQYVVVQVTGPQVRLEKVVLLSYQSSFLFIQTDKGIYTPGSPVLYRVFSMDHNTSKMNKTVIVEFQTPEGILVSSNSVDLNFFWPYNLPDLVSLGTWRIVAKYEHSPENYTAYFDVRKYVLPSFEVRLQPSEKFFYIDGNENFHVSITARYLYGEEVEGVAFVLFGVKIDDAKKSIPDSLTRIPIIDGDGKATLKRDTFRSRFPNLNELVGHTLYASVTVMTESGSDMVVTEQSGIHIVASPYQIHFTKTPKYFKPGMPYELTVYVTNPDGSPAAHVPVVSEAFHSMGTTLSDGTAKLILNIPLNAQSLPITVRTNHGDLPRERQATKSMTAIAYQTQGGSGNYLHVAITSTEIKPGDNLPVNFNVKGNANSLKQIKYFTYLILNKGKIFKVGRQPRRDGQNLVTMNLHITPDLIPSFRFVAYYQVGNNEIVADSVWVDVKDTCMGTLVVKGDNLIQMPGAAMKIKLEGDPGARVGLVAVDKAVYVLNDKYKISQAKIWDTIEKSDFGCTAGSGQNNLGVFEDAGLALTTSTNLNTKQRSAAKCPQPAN
Sequence (Q91132 733-984 partner limits assumed): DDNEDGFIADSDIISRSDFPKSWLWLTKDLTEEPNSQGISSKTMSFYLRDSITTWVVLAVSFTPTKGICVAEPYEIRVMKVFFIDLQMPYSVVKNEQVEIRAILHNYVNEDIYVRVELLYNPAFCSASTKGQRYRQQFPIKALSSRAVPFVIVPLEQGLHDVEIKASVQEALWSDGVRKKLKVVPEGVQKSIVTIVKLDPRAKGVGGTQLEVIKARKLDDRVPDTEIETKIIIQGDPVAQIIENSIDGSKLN
Sequence (Q91132 1264-1642 partner limits assumed): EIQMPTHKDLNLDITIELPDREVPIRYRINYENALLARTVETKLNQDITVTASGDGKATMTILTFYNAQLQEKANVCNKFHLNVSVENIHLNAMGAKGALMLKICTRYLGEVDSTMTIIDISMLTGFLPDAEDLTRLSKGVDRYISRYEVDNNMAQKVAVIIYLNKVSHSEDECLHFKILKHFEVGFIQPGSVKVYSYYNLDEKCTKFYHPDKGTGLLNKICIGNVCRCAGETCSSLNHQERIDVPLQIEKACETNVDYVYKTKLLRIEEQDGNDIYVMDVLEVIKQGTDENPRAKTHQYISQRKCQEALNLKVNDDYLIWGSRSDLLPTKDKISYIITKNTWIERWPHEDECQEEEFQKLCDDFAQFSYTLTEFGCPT
assay.protocol: factor B inhibition assay of Biological Example 1
Type: biochemical
Parameters: CVF-Bb complex prepared from purified cobra venom factor (1 μM), recombinant human complement factor B; made in house; host or cells: drosophila cells (factor B); E. coli (factor D used to form the complex)
particulars: IC50 (nM), assay of Biological Example 1 (Table 1)
IC50 overview
readout.kind: IC50 (nM)

compound=C=C(c1nc2cc(C#N)ccc2[nH]1)c1c(OC)cc(C)c2[nH]ccc12 readout_kind=IC50 measurement=30
compound="Cc1cc(C)c2[nH]cc(-c3cccnc3)c2c1C(O)c1nc2cc(C#N)ccc2[nH]1 (single isomer, unassigned) [120 b) (tr = 3.20 min)]" readout_kind=IC50 measurement=29000
compound="Cc1cc(Br)c(C(C)(O)c2nc3cc(C#N)ccc3[nH]2)c2cc[nH]c12 (single isomer, unassigned) [79-F b) (tr = 2.2 min)]" readout_kind=IC50 measurement=60

====

subject.of.test: factor B (Homo sapiens)
assay.protocol: factor B inhibition assay of Biological Example 1
Type: biochemical
Set-up: CVF-Bb complex prepared from purified cobra venom factor (1 μM), recombinant human complement factor B; made in house; host or cells: drosophila cells (factor B); E. coli (factor D used to form the complex)
particulars: IC50 (nM), assay of Biological Example 1 (Table 1)
readout.kind: IC50 (nM)

molecule="Cc1cc(OC(F)F)c(C(C)(N)c2nc3cc(C#N)ccc3[nH]2)c2cc[nH]c12 (single isomer, unassigned; (-)) [5-E b) (−)]" measurement=40
molecule="Cc1cc(C)c2[nH]ccc2c1C(NS(C)(=O)=O)c1nc2cc(C#N)ccc2[nH]1 (racemic) [Example 99-B]" measurement=750
molecule="[2H]C([2H])([2H])C(OC)(c1nc2cc(C#N)ccc2[nH]1)c1c(OC)cc(C)c2[nH]ccc12 (single isomer, unassigned; (-)) [27-E b) (−)]" measurement=4
molecule="COCCOC(c1nc2cc(C#N)ccc2[nH]1)c1c(C)cc(C)c2[nH]ccc12 (racemic) [Example 74]" measurement=1870
molecule="CNC(c1nc2cc(C#N)ccc2[nH]1)(c1c(S(C)(=O)=O)cc(C)c2[nH]ccc12)C(F)(F)F (single isomer, unassigned; (-)) [16-B b) (−)]" measurement=180
molecule="Cc1cc(OC(F)F)c(C(O)c2nc3cc(C#N)ccc3[nH]2)c2cc[nH]c12 (single isomer, unassigned; (+)) [3-B b) (+)]" measurement=820

====

subject.of.test: factor B (Homo sapiens)
assay.protocol: factor B inhibition assay of Biological Example 1
Type: biochemical
Parameters: CVF-Bb complex prepared from purified cobra venom factor (1 μM), recombinant human complement factor B; made in house; host or cells: drosophila cells (factor B); E. coli (factor D used to form the complex)
particulars: IC50 (nM), assay of Biological Example 1 (Table 1)
readout.kind: IC50 (nM)

compound="Cc1cc(C)c2[nH]ccc2c1C(O)c1nc2cc(C#N)ccc2[nH]1 (single isomer, unassigned; (-)) [64-C b) (−)]" result_units=nM measurement=60
compound="CCc1cc(C)c2[nH]ccc2c1C(O)(c1nc2cc(C#N)ccc2[nH]1)C(F)(F)F (single isomer, unassigned; (-)) [80-C b) (−)]" result_units=nM measurement=10
compound="COC(c1nc2cc(C#N)ccc2[nH]1)c1c(CC(C)C)cc(C)c2[nH]ccc12 (single isomer, unassigned; (+)) [71 b) (+)]" result_units=nM measurement=4550
